# System: rice
# ASSAY_SUMMARY: Low temperature assay on rice seedlings
# Type: in vivo
# EXPERIMENTAL_CONDITIONS: 0.001 mg/l, 1 °C, 12 days
ATTRIBUTE_MEASURED: Number of leaf

1. CC(C)C[C@@H](O)[C@H](O)[C@@H](C)[C@H]1CCC2C3CC(=O)C4C[C@H](O)[C@H](O)C[C@]4(C)C3CC[C@@]21C (stereo partly drawn); 3
2. C=C(C(C)C)[C@@H](O)[C@H](O)[C@@H](C)[C@H]1CCC2C3COC(=O)C4C[C@H](O)[C@H](O)C[C@]4(C)C3CC[C@@]21C (stereo partly drawn); 3
3. CC(C)(O)CC[C@@H](O)[C@](C)(O)[C@H]1CC[C@@]2(O)[C@@H]3CC(=O)[C@@H]4C[C@@H](O)[C@@H](O)C[C@]4(C)[C@H]3CC[C@]12C; 3
